Biological target: human ether-à-go-go-related gene (hERG) potassium channel (human);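 also: peak tail current of the secondary pulse compared with the same well before compound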
Experiment: primary screen, population patch clamp on CHO cells stably expressing hERG; higher = less effect of the substance
Among all 310,000 compounds or so, about 14,000 (4.5%) showed an effect of 50% or more. Effects have a minus sign here. Shown is part of a subset that was picked to be rich in strong results.
Result type: hERG current change (%, negative = inhibition) at 10uM (%)

- Compound: "COc1ccc(OCc2cc(C(=O)NCC(C)Oc3cccnc3)no2)c(Cl)c1 (stereo not drawn)"
  Readout number: -52.6
- Compound: "CCCCC(=O)N1CCN(c2nc3ccc(Cl)cc3s2)CC1"
  Readout number: -71.1
- Compound: "CCCCC(=O)N1CCN(c2nc3ccc(F)cc3s2)CC1"
  Readout number: -65.3

====

Each record here notes measured hERG current change (%, negative = inhibition) at 10uM.
Biological target: human ether-à-go-go-related gene (hERG) potassium channel (human);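 also: peak tail current of the secondary pulse compared with the same well before compound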
Assay: primary screen, population patch clamp on CHO cells stably expressing hERG; higher = less effect of the substance
Procedure: Briefly, Chinese hamster ovary (CHO) cells stably expressing the hERG channel were dislodged from tissue culture flasks and dispensed into PPC plates. […] During the recording, background leak currents were estimated by a 100 ms step to -80 mV from an initial holding potential of -70 mV and subtracted from the subsequent current measurement. The campaign was conducted in two phases using slight differences in recording protocol. […]
Screen size: about 310,000 compounds; about 14,000 (4.5%) showed an effect of 50% or more. Effects have a minus sign here. The sample holds strong results, similar compounds and a random draw of the others, so the mix is not that of the screen.
Result type: hERG current change (%, negative = inhibition) at 10uM (%)

- Compound: "CC1CCCN(C(=O)NC(=O)c2ccc(Cl)cc2)C1 (stereo not drawn)"
  Unit text: "%"
  Readout number: 3.85
- Compound: "COc1ccc(N2CCN(CCCNC(=O)C(=O)c3c(C)n(C)c4ccccc34)CC2)cc1"
  Unit text: "%"
  Readout number: -64.1
- Compound: "NC(=O)C(=O)N/N=C/c1c2ccccc2cc2ccccc12"
  Unit text: "%"
  Readout number: -11.1
- Compound: "COc1cccc(OC)c1C(=O)OCC(=O)N(C)c1ccccc1"
  Unit text: "%"
  Readout number: 7.96
- Compound: "Cc1ccc(NC(=O)Nc2c(C)n(C)n(-c3ccccc3)c2=O)cc1C"
  Unit text: "%"
  Readout number: 13.1
- Compound: "COc1ccc(N(C(=O)c2ccco2)C(C(=O)NC2CCCC2)c2cccs2)cc1OC (stereo not drawn)"
  Unit text: "%"
  Readout number: 1.89

====

Reported hERG current change (%, negative = inhibition) at 10uM by item:
Molecular target: human ether-à-go-go-related gene (hERG) potassium channel (human, UniProt Q12809);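 also: peak tail current of the secondary pulse compared with the same well before compound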
Sequence (Q12809 whole entry, looked up): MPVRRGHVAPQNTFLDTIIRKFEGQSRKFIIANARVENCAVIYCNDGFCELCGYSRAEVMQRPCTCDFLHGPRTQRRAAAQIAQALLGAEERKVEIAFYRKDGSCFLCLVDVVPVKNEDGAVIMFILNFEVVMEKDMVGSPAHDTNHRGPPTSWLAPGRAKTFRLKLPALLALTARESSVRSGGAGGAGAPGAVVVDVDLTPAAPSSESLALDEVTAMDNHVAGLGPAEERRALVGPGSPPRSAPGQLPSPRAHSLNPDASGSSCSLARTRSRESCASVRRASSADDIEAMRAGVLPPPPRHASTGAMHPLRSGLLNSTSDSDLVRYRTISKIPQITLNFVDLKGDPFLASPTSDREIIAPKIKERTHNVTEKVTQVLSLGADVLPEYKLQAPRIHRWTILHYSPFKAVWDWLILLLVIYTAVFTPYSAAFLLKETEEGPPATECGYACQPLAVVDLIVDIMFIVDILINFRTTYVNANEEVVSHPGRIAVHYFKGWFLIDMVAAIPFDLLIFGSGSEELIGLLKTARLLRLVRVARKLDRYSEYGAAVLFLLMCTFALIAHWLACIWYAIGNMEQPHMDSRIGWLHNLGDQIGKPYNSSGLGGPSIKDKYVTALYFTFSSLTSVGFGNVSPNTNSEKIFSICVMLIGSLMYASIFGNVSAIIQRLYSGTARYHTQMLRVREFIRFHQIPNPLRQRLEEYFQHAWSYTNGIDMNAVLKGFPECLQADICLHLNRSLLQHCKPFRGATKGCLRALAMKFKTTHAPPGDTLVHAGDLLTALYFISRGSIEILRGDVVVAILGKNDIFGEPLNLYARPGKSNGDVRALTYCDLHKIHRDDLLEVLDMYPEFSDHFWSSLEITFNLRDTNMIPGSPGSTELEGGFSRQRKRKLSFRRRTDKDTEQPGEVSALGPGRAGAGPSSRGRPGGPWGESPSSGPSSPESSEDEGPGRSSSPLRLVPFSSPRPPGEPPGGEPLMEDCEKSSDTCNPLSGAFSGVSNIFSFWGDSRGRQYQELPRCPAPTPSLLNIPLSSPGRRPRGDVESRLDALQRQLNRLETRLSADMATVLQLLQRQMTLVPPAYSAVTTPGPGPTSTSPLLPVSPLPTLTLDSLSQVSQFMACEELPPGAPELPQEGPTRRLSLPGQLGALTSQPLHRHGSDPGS
Test: primary screen, population patch clamp on CHO cells stably expressing hERG; higher = less effect of the substance
The whole screen tested about 310,000 compounds, of which about 14,000 (4.5%) showed an effect of 50% or more. The effect is printed as a negative number. The entries come from a sample that favours strong results as a whole.
Result type: hERG current change (%, negative = inhibition) at 10uM (%)

- Compound: "CN1CCNC(=O)C1CC(=O)NCCc1ccccc1F (centres unmarked)"
  Readout number: 13.4
- Compound: "COc1cccc(-c2ccc(NC(=O)C3CCCN(Cc4cnn(C)c4)C3)cc2)c1 (centres unmarked)"
  Readout number: -37
- Compound: "Cc1ncc(CN2CCCC(C(=O)Nc3ccc(-c4ccco4)cc3)C2)cn1 (centres unmarked)"
  Readout number: -11.5
- Compound: "O=C(OCC(=O)N1CCc2ccccc2C1)c1ccc(OC(F)F)cc1"
  Readout number: -80.2
- Compound: "COc1cc2c(cc1OC)CN(C(=O)CNC(=O)c1ccc(OC(F)F)cc1)CC2"
  Readout number: -52.5
